Origin of values: paper PMC12339742

B1: PduP encapsulation peptide with its native linker fused to the N-terminus of mNeonGreen [Salmonella enterica] / itself (parent)
chain: MNTSELETLIRTILSEQLTTPAQTPVQPQGKGIFQS

Variants of: B1
Test Details: turbidity measurement (self-assembly / condensation), protein concentration titration
Condition: with itself; value read at the third-highest protein concentration point (est. ~45 µM); parent: 0.45; read off a plot
Recorded Endpoint: response

>>> obs_value("chain 1 R11K")
0.39
>>> obs_value("chain 1 E7D")
0.21
>>> obs_value("chain 1 R11A")
0.21
>>> obs_value("chain 1 E7R R11E")
0.5
